Tested on: SMMC-7721
Assay: Cytotoxicity in human SMMC7721 cells assessed as reduction in cell viability incubated for 48 hrs by MTT assay
Type: functional, cell-based
Settings: SMMC-7721, 48 h
Observation type: pIC50
API: returns pIC50 as number; meaning -log10 of concentration in mol/L.

Problem: Form field: reported pIC50 of `COC(=O)c1c(CCc2ccccc2)cc(O)c(CC=C(C)C)c1O`
Solution: 5.07

Problem: Form field: reported pIC50 of C=C(C)C(O)Cc1c(O)cc(CCc2ccccc2)c(C(=O)OC)c1O (racemic)
Solution: 5.05

Problem: Form field: reported pIC50 of `CC1=CCc2c(O)cc(CCc3ccccc3O)cc2OC1`
Solution: 4.40

Problem: Form field: reported pIC50 of `C=C(C)[C@@H](O)CC/C(C)=C/Cc1c(O)cc(O)cc1CCc1ccccc1`
Solution: 4.53

Problem: Form field: reported pIC50 of `CC1(C)[C@@H]2c3c(CCc4ccccc4)cc(O)cc3O[C@]3(C)CC[C@H]1[C@H]23`
Solution: 4.87

Problem: Form field: reported pIC50 of `O=C1C=Cc2c(O)cc(CCc3ccccc3O)cc2OC1`
Solution: 4.83

Problem: Form field: reported pIC50 of `C=C(CCC=C(C)C)[C@H](O)Cc1c(O)cc(O)cc1CCc1ccccc1`
Solution: 4.80

Value source: ChEMBL document CHEMBL4339251
